Source of measurements: paper PMC4072508

molecular target: Bcl-2 (Homo sapiens, UniProt P10415, DEL53-91); construct: myc- Bcl-2 FP; made in house; assay: Fluorescence polarization direct binding; conditions: FP direct binding; 10 nM FAM-labeled peptide, receptor titrated; 25°C, pH 7.8; fit of all replicate titrations; X+number in a cell = highest concentration (nM) measured with no binding detected, given here as >; SPNS1 fit to raw fluorescence; read-out: Best-fit KD, Bcl-2
Sequence (P10415 with tags, fused parts or gaps DEL53-91): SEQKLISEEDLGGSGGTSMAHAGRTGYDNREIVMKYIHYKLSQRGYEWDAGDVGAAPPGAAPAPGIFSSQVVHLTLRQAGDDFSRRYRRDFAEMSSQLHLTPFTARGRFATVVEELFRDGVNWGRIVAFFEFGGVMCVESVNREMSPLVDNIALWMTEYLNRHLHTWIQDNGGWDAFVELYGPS
No end group written: not given here.
MEASUREMENT_TYPE: Kd (nM)

Please review the following examples before continuing.
RYRHGAPAEQLRHLADMLTTKWATLQ-NH2 [PLEKHH1]    1500
ELQELARKLQELADASENLLTEN-NH2 [TXNDC11]    86
ATRRLSGFLRTLADRLEGTKELL-NH2 [MINA]    266
AWGKFGGAFARYADEMKEIQERQ-NH2 [PURB]    34

I. PILENPEILRKTADDFLNRIALT-NH2 [CCH]
II. AIRPRAVELRHLADDFINGNKKK-NH2 [MCF2L2]
Query: I'm curious whether I or II has the smaller Kd number. Which is it? Identify your pick by its label.
Reply: II
